Could you please report measured inhibition at 10 µM for the items listed next?
System: IICR (IP3 induced calcium release) in CHO cells
Assay: Assay of IICR (IP3 induced calcium release)-inhibiting action
Type: cell-based, Chinese hamster
Details: Cricetulus griseus, CHO, test compound 10 μmol; CHO cells, 10 μM ATP; read-out: IICR level (percentage of inhibition)
A number alone suffices; assume %.

Check IICR (IP3 induced calcium release) in CHO cells data and give inhibition at 10 µM for `O=C(CCN(CCO)CCO)c1ccc(I)s1` .
0

Check IICR (IP3 induced calcium release) in CHO cells data and give inhibition at 10 µM for `Cc1ccc(C(=O)CCN(C)CCO)o1` .
20

Check IICR (IP3 induced calcium release) in CHO cells data and give inhibition at 10 µM for `O=C(CCN(CCO)Cc1ccccc1)c1ccco1` .
20

Check IICR (IP3 induced calcium release) in CHO cells data and give inhibition at 10 µM for O=C(CCNC(CO)c1ccccc1)c1ccc(Br)s1 (stereo not drawn) .
0

Check IICR (IP3 induced calcium release) in CHO cells data and give inhibition at 10 µM for `CCN(CCC(=O)c1cccnc1)Cc1ccccc1` .
30

Check IICR (IP3 induced calcium release) in CHO cells data and give inhibition at 10 µM for `CC(C)N(CCC(=O)c1ccncc1)C(C)C` .
0

Check IICR (IP3 induced calcium release) in CHO cells data and give inhibition at 10 µM for `NCCSSCCN(CCC(=O)c1ccc(I)cc1)CCC(=O)c1ccc(I)cc1` .
0

Check IICR (IP3 induced calcium release) in CHO cells data and give inhibition at 10 µM for `Cc1ccsc1C(=O)CCN(Cc1ccccc1)C(C)(C)C` .
70

Check IICR (IP3 induced calcium release) in CHO cells data and give inhibition at 10 µM for `C=CCC(=O)c1cccc2ccccc12` .
20
